Data provenance is PubChem BioAssay (NCATS).

System: TAB109
Experiment: qHTS profiling for inhibitors of Plasmodium falciparum proliferation (AID 504749); further: nearly all actives have a fitted effect of over 60% in size; further: potency means the concentration at half of the fitted maximal effect
Conditions: P. falciparum in erythrocytes, SYBR Green DNA, 72 h; series mostly up to 28.7 µM
Protocol: NIH National Institute of Allergy and Infectious Diseases [NIAID] NIH Chemical Genomics Center [NCGC] […] Because mature erythrocytes lack DNA, only Plasmodium-derived DNA is detected. NCGC Assay Protocol Summary: The SYBR Green viability assay was adapted from a method described previously (Plouffe et al., 2008). […] The following morning, fluorescence intensity at 485(14) nm excitation and 535(25) nm emission wavelengths was measured on an EnVision (Perkin Elmer) plate reader. […]
Results filed as inconclusive are left out. Active and inactive are the calls of the source. The call rests on the fitted dose curve; in most records, active means well fitted inhibition curve with a large enough effect; inconclusive means small, poorly fitted or top-dose-only effect; inactive means flat fitted curve, though single readings scatter. Square brackets hold non-standard residues; d marks the D form. Peptide text beside a SMILES is read from it. Orn = NCCC[CH](N)C(=O)O
Measurement name: Potency

[
  {
    "Molecule": "CC(C)C(NC(=O)C(CC(=O)O)NC(=O)C(CCCCN)NC(=O)C(N)CCCN=C(N)N)C(=O)NC(Cc1ccc(O)cc1)C(=O)O (configuration not stated) (H-RKDVY-OH; configuration not given here)",
    "Measurement name": "Potency",
    "Assay result": "inactive"
  },
  {
    "Molecule": "CC(C)C[C@H](NC(=O)[C@@H](Cc1c[nH]c2ccccc12)NC(=O)[C@@H](Cc1ccc(O)cc1)NC(=O)[C@@H](CO)NC(=O)[C@@H](Cc1c[nH]c2ccccc12)NC(=O)C(Cc1cnc[nH]1)NC(=O)C1CCC(=O)N1)C(=O)N[C@@H](CCCN=C(N)N)C(=O)N1CCC[C@@H]1C(=O)NCC(N)=O (some centres not stated)",
    "Measurement name": "Potency",
    "Assay result": "inactive"
  },
  {
    "Molecule": "CC1(C)C(/C=C/C=C/C=C/C=C2\\N(CCCCS(=O)(=O)O)c3ccc4ccccc4c3C2(C)C)=[N+](CCCCS(=O)(=O)[O-])c2ccc3ccccc3c21",
    "Measurement name": "Potency",
    "Assay result": "inactive"
  },
  {
    "Molecule": "CNCC(=O)NC(CCCN=C(N)N)C(=O)NC(C(=O)NC(Cc1ccc(O)cc1)C(=O)NC(C(=O)NC(Cc1cnc[nH]1)C(=O)N1CCCC1C(=O)NC(C)C(=O)O)C(C)C)C(C)C (configuration not stated)",
    "Measurement name": "Potency",
    "Assay result": "inactive"
  },
  {
    "Molecule": "C=CC1=C(C(=O)O)N2C(=O)[C@@H](NC(=O)C(N=O)c3csc(N)n3)[C@H]2SC1 (some centres not stated)",
    "Measurement name": "Potency",
    "Assay result": "inactive"
  },
  {
    "Molecule": "Cn1cc(O)nc1NC(=O)Nc1cccc(Cl)c1",
    "Measurement name": "Potency",
    "Assay result": "inactive"
  },
  {
    "Molecule": "NC(=O)CCC1NC(=O)C(Cc2ccccc2)NC(=O)C(Cc2ccc(O)cc2)NC(=O)CCSSCC(C(=O)N2CCCC2C(=O)NC(CCCN=C(N)N)C(=O)NCC(N)=O)NC(=O)C(CC(N)=O)NC1=O (configuration not stated)",
    "Measurement name": "Potency",
    "Assay result": "inactive"
  },
  {
    "Molecule": "CC(N)C(=O)NCC(=O)NC1CSSCC(C(=O)O)NC(=O)C(CO)NC(=O)C(C(C)O)NC(=O)C(Cc2ccccc2)NC(=O)C(C(C)O)NC(=O)C(CCCCN)NC(=O)C(Cc2c[nH]c3ccccc23)NC(=O)C(Cc2ccccc2)NC(=O)C(Cc2ccccc2)NC(=O)C(CC(N)=O)NC(=O)C(CCCCN)NC1=O (configuration not stated)",
    "Measurement name": "Potency",
    "Assay result": "inactive"
  },
  {
    "Molecule": "O=C1/C(=C\\c2cccs2)CCC/C1=C/c1cccs1",
    "Measurement name": "Potency",
    "Assay result": "inactive"
  },
  {
    "Molecule": "CCC(Oc1ccccc1)C(=O)NC1C(=O)N2C1SC(C)(C)C2C(=O)O (configuration not stated)",
    "Measurement name": "Potency",
    "Assay result": "inactive"
  },
  {
    "Molecule": "CC(C)CC1NC(=O)C(CCCN)NC(=O)C(C(C)C)NC(=O)C2CCCN2C(=O)C(Cc2ccccc2)NC(=O)C(CC(C)C)NC(=O)C(CCCN)NC(=O)C(C(C)C)NC(=O)C2CCCN2C(=O)C(Cc2ccccc2)NC1=O (configuration not stated) (cyclo(FPV[Orn]LFPV[Orn]L); configuration not given here)",
    "Measurement name": "Potency",
    "Assay result": "1.1 nM (active)"
  },
  {
    "Molecule": "O=C(OCC1OC(OC(=O)c2cc(O)c(O)c(OC(=O)c3cc(O)c(O)c(O)c3)c2)[C@@H](OC(=O)c2cc(O)c(O)c(OC(=O)c3cc(O)c(O)c(O)c3)c2)C(OC(=O)c2cc(O)c(O)c(OC(=O)c3cc(O)c(O)c(O)c3)c2)C1OC(=O)c1cc(O)c(O)c(OC(=O)c2cc(O)c(O)c(O)c2)c1)c1cc(O)c(O)c(OC(=O)c2cc(O)c(O)c(O)c2)c1 (some centres not stated)",
    "Measurement name": "Potency",
    "Assay result": "2820 nM (active)"
  }
]
